pKi: −log10 of the molar value.
Below are pKi values measured for Cannabinoid receptor 1 (Homo sapiens, UniProt P21554).

{"columns": ["COMPOUND", "pKi"],
 "data": [
  ["CCOc1ccc(Cc2nc3cc(N(C)C(=O)N(C)C)ccc3n2CC2CC2)cc1", "< 5.30"]
]}

Given the entry `CCOc1ccc(Cc2nc3cc(C(=O)N(CC)CC)ccc3n2C[C@H]2CCCO2)cc1` , what pKi was observed with Cannabinoid receptor 1 (Homo sapiens, UniProt P21554)?
< 5.30

Given the entry `CCOc1ccc(Cc2nc3cc(C(=O)N(CC)CC)ccc3n2Cc2ccccc2)cc1` , what pKi was observed with Cannabinoid receptor 1 (Homo sapiens, UniProt P21554)?
5.32

Given the entry CCOc1ccc(C(O)c2nc3cc(C(=O)N(CC)CC)ccc3n2CCC(C)C)cc1 (centres undefined) , what pKi was observed with Cannabinoid receptor 1 (Homo sapiens, UniProt P21554)?
< 5.30

Given the entry `CCN(CC)C(=O)c1ccc2c(c1)nc(Cc1ccc(O)cc1)n2CCC(C)C` , what pKi was observed with Cannabinoid receptor 1 (Homo sapiens, UniProt P21554)?
< 5.30

Given the entry `CCOc1ccc(C(=O)c2nc3cc(C(=O)N(CC)CC)ccc3n2CCC(C)C)cc1` , what pKi was observed with Cannabinoid receptor 1 (Homo sapiens, UniProt P21554)?
< 5.30

Given the entry `CCN(CC)C(=O)c1ccc2c(c1)nc(Cc1ccc(OC(C)C)cc1)n2CCC(C)C` , what pKi was observed with Cannabinoid receptor 1 (Homo sapiens, UniProt P21554)?
5.33

Given the entry `CCN(CC)C(=O)c1ccc2c(c1)nc(Cc1ccc(OC(F)(F)F)cc1)n2CCC(C)C` , what pKi was observed with Cannabinoid receptor 1 (Homo sapiens, UniProt P21554)?
< 5.30

Given the entry `CCOc1ccc(Cc2nc3cc(C(=O)N(CC)CC)ccc3n2Cc2ccccn2)cc1` , what pKi was observed with Cannabinoid receptor 1 (Homo sapiens, UniProt P21554)?
< 5.30
